src = patent US20220227796A1

Tested on: HCC827(Δ19del)
Assay: HCC827 cells proliferation assay
Format: cell-based
Conditions: Homo sapiens, HCC827; cell proliferation, 72 h, CellTiter Glo; class symbols; read-out: HCC827 IC50
pIC50: −log10 of the molar value.
In this section we review reported pIC50 values for a set of compounds.

A selection of reference data follows.
C=CC(=O)Nc1cc(Nc2nccc(Nc3ccccc3P(C)(C)=O)n2)c(OC)cc1N(C)CCN(C)C = > 8.00
C=CC(=O)Nc1cc(Nc2ncc(Cl)c(Nc3ccccc3P(C)(C)=O)n2)c(OC)cc1N(C)CCN(C)C = > 8.00

pIC50 measured on C=CC(=O)Nc1cc(Nc2ncc(Cl)c(Nc3ccc4ccccc4c3P(C)(C)=O)n2)ccc1N1CCC2(CC1)CC(N(C)C)C2 = 7.30 to 8.00

pIC50 measured on C=CC(=O)Nc1cc(Nc2ncc(Cl)c(Nc3ccccc3P(C)(C)=O)n2)ccc1OC1CCN(C)CC1 = 7.30 to 8.00

---

In this section we review reported IC50 values for a set of compounds.
Tested on: HCC827(Δ19del)
Assay: HCC827 cells proliferation assay
Type: cell-based
Conditions: Homo sapiens, HCC827; cell proliferation, 72 h, CellTiter Glo; class symbols; read-out: HCC827 IC50
Experimental: Test 3 H1975 and HCC827 Cells Proliferation Assay a) The medium was preheated in a 37° C. water bath in advance. b) Remove the cryogenic vials from the liquid nitrogen tank, quickly put it into a 37° C. water bath, and completely melt it in 1 min. […] c) The Luminescence signal value was read using a PerkinElmer reader. […] Data were analyzed using GraphPad Prism 6.0 software to obtain a fitted curve of compound activity. […]

A selection of reference data follows.
CN(C)C/C=C/C(=O)Nc1cc(Nc2ncc(Cl)c(Nc3ccccc3P(C)(C)=O)n2)ccc1N1CCC2(CC1)CC(N(C)C)C2 = 10 to 50 nM
C=CC(=O)Nc1cc(Nc2ncc(F)c(Nc3ccccc3P(C)(C)=O)n2)c(OC)cc1N(C)CCN(C)C = < 10 nM

IC50 measured on C=CC(=O)Nc1cc(Nc2ncc(Br)c(Nc3ccc4nccnc4c3P(C)(C)=O)n2)ccc1N1CCC(N2CCN(C)CC2)CC1 = 10 to 50 nM

IC50 measured on C=CC(=O)Nc1cc(Nc2ncc(Br)c(Nc3ccc4nccnc4c3P(C)(C)=O)n2)c(OC)cc1N1CCC(N2CCN(C)CC2)CC1 = 10 to 50 nM

---

System: HCC827(Δ19del)
Test: HCC827 cells proliferation assay
Type: cell-based
Conditions: Homo sapiens, HCC827; cell proliferation, 72 h, CellTiter Glo; class symbols; read-out: HCC827 IC50
In this section we review reported IC50 values for a set of compounds.

A selection of reference data follows.
C=CC(=O)Nc1cc(Nc2ncc(C)c(Nc3ccccc3P(C)(C)=O)n2)c(OC)cc1N(C)CCN(C)C [Compound 21] = < 10 nM
C=CC(=O)Nc1cc(Nc2ncc(Cl)c(Nc3ccccc3P(C)(C)=O)n2)c(C)cc1N1CCC2(CC1)CC(N(C)C)C2 [Compound 31] = 10 to 50 nM
C=CC(=O)Nc1cc(Nc2ncc(Cl)c(Nc3ccccc3P(C)(C)=O)n2)ccc1N1CCC(N2CCN(C)CC2)CC1 [Compound 16] = 10 to 50 nM

IC50 measured on C=CC(=O)Nc1cc(Nc2ncc(Cl)c(Nc3ccccc3P(C)(C)=O)n2)ccc1N1CCC2(CC1)CN(C)C2 [Compound 14] = 10 to 50 nM

IC50 measured on C=CC(=O)Nc1cc(Nc2ncc(C)c(Nc3ccccc3P(C)(C)=O)n2)ccc1N(C)CCN(C)C [Compound 19] = < 10 nM

IC50 measured on C=CC(=O)Nc1cc(Nc2ncc(F)c(Nc3ccccc3P(C)(C)=O)n2)ccc1N1CCC(N2CCN(C)CC2)CC1 [Compound 29] = 10 to 50 nM

IC50 measured on C=CC(=O)Nc1cc(Nc2ncc(Cl)c(Nc3ccc4nccnc4c3P(C)(C)=O)n2)ccc1N1CCC2(CC1)CC(N(C)C)C2 [Compound 10] = 10 to 50 nM

IC50 measured on C=CC(=O)Nc1cc(Nc2ncc(Cl)c(Nc3ccccc3P(C)(C)=O)n2)ccc1N(C)CCN(C)C [Compound 15] = < 10 nM

IC50 measured on C=CC(=O)Nc1cc(Nc2ncc(Br)c(Nc3ccc4nccnc4c3P(C)(C)=O)n2)ccc1N1CCC2(CC1)CC(N(C)C)C2 [Compound 35] = < 10 nM

IC50 measured on C=CC(=O)Nc1cc(Nc2ncc(C)c(Nc3ccccc3P(C)(C)=O)n2)ccc1N1CCC(N2CCN(C)CC2)CC1 [Compound 20] = < 10 nM

IC50 measured on C=CC(=O)Nc1cc(Nc2ncc(Cl)c(Nc3ccccc3P(C)(C)=O)n2)ccc1N1CCC2(CCC(N(C)C)CC2)CC1 [Compound 1] = < 10 nM

IC50 measured on C=CC(=O)Nc1cc(Nc2ncc(Cl)c(Nc3ccccc3P(C)(C)=O)n2)ccc1N(C)CCN1CCCC1 [Compound 18] = < 10 nM
